# TESTED_ON: ALK tyrosine kinase receptor (Homo sapiens, UniProt Q9UM73)
# Sequence (Q9UM73 19-1620 limits assumed): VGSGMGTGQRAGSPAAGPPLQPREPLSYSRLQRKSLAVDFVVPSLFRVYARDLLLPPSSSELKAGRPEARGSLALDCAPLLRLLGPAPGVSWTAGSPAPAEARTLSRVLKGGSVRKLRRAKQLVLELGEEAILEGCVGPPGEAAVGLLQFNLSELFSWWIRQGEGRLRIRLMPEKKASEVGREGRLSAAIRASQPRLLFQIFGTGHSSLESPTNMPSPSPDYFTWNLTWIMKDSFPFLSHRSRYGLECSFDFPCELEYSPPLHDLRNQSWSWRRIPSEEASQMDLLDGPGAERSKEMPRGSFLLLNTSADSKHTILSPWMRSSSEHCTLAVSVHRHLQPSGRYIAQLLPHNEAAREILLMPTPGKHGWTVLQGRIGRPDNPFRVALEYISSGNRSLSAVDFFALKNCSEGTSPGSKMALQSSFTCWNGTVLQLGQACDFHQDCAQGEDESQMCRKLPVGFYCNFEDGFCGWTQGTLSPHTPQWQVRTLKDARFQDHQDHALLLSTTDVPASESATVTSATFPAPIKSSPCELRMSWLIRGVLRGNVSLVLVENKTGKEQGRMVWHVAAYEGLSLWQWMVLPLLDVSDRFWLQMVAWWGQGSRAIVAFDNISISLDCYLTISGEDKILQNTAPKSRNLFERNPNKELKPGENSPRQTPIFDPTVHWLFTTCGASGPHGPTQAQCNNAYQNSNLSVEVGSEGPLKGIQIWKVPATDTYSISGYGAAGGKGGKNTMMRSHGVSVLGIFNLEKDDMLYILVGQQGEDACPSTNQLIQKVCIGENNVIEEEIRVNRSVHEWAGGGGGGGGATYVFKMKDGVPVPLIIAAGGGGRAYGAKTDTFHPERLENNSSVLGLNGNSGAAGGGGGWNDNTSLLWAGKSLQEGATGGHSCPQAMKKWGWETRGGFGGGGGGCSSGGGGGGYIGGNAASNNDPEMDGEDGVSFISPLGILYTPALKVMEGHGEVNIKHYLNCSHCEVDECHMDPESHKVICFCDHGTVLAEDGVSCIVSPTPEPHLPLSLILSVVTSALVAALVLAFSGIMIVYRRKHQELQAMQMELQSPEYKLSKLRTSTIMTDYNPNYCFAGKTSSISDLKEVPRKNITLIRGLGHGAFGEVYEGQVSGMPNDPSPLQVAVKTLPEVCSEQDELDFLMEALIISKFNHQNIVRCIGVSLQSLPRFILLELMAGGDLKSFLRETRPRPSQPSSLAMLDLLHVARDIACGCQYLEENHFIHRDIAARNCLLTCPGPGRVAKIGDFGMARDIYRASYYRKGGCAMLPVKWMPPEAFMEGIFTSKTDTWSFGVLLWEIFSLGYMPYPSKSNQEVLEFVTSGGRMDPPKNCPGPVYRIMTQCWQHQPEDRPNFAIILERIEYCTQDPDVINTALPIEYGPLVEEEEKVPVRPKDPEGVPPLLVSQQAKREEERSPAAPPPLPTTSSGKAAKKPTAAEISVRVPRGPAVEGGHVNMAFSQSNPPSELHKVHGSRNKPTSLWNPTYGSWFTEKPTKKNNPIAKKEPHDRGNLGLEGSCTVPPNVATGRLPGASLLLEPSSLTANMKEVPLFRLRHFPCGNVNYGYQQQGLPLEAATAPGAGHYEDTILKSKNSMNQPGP
# ASSAY_INFO: Inhibition of ALK (unknown origin) at 10 nM preincubated for 10 mins followed by addition of substrate and ATP for 25 mins by caliper EZ reader method
# APPLIED_CONDITIONS: time 35.0 min

[
  {
    "ITEM_SMILES": "COc1ccc(Nc2nc(Nc3ccc(NC(=O)CCCCCCC(=O)NO)cc3)ncc2Cl)cc1OC",
    "TESTED_ON": "ALK tyrosine kinase receptor (Homo sapiens, UniProt Q9UM73)",
    "UNIT_NAME": "%",
    "inhibition": 3.1
  },
  {
    "ITEM_SMILES": "CC(C)S(=O)(=O)c1ccccc1Nc1nc(Nc2ccc(NC(=O)CC(=O)NO)cc2)ncc1Cl",
    "TESTED_ON": "ALK tyrosine kinase receptor (Homo sapiens, UniProt Q9UM73)",
    "UNIT_NAME": "%",
    "inhibition": 92.1
  },
  {
    "ITEM_SMILES": "CC(C)S(=O)(=O)c1ccccc1Nc1nc(Nc2ccc(C(=O)NCCCCC(=O)NO)cc2)ncc1Cl",
    "TESTED_ON": "ALK tyrosine kinase receptor (Homo sapiens, UniProt Q9UM73)",
    "UNIT_NAME": "%",
    "inhibition": 85.2
  },
  {
    "ITEM_SMILES": "CC(C)S(=O)(=O)c1ccccc1Nc1nc(Nc2ccc(C(=O)NCCCCCCC(=O)NO)cc2)ncc1Cl",
    "TESTED_ON": "ALK tyrosine kinase receptor (Homo sapiens, UniProt Q9UM73)",
    "UNIT_NAME": "%",
    "inhibition": 84.5
  },
  {
    "ITEM_SMILES": "Cc1c(Nc2ncc(Cl)c(Nc3ccccc3S(=O)(=O)C(C)C)n2)cccc1C(=O)NCCCCCC(=O)NO",
    "TESTED_ON": "ALK tyrosine kinase receptor (Homo sapiens, UniProt Q9UM73)",
    "UNIT_NAME": "%",
    "inhibition": 86.8
  },
  {
    "ITEM_SMILES": "CC(C)S(=O)(=O)c1ccccc1Nc1nc(Nc2cccc(NC(=O)CCCCC(=O)NO)c2)ncc1Cl",
    "TESTED_ON": "ALK tyrosine kinase receptor (Homo sapiens, UniProt Q9UM73)",
    "UNIT_NAME": "%",
    "inhibition": 87.2
  }
]
